Test: Rat PK after single IV or SC RE104 HCl 2 mg/kg (Example 1)
Recorded conditions: plasma, iv, 2 mg/kg

{"Molecule": "CC(C)N(CCc1c[nH]c2cccc(O)c12)C(C)C [4-OH-DiPT]", "half-life [min]": 25.6}

====

Tgt: human recombinant 5-HT2A receptors (Homo sapiens)
Test: 5-HT2A agonist radioligand binding assay ([125I]DOI)
pIC50: −log10 of the molar value.

{"Smiles structure": "CC(C)N(CCc1c[nH]c2cccc(OC(=O)CCCC(=O)O)c12)C(C)C", "Tgt": "human recombinant 5-HT2A receptors (Homo sapiens)", "pIC50": 5.80}

====

Test: Phase 1 FIH study: plasma pharmacokinetics (LC-MS/MS)
Assay type: in vivo
Recorded conditions: female, plasma; human, RE104 dose 22 mg SC (n = 6); read-out: t1/2, mean (converted)
Quick reference: half-life of the listed items.
Result type: half-life

{"Smiles structure": "CC(C)N(CCc1c[nH]c2cccc(OC(=O)CCCC(=O)O)c12)C(C)C", "Endpoint value": "0.5 h"}
{"Smiles structure": "CC(C)N(CCc1c[nH]c2cccc(O)c12)C(C)C", "Endpoint value": "3.27 h"}

====

Test: GLP 14-day extended single SC dose toxicity study in dogs
Recorded conditions: beagle, dog, plasma, sc, 8 mg/kg

{"Smiles structure": "CC(C)N(CCc1c[nH]c2cccc(OC(=O)CCCC(=O)O)c12)C(C)C", "Output unit": "ng·h/mL", "AUC(0-t)": 4540}
{"Smiles structure": "CC(C)N(CCc1c[nH]c2cccc(O)c12)C(C)C", "Output unit": "ng·h/mL", "AUC(0-t)": 1010}

====

Test: Plasma protein binding, human plasma
Assay type: in vitro ADME
Recorded conditions: human plasma proteins, 1 to 20 PM; read-out: plasma protein binding (bound)

{"Compound": "CC(C)N(CCc1c[nH]c2cccc(O)c12)C(C)C [4-OH-DiPT]", "fraction unbound": "0.07 to 0.2"}

====

Test: in vivo
Recorded conditions: male, beagle, dog, plasma, po, 5 mg/kg
Result type: half-life (h)

{"Smiles structure": "CC(C)N(CCc1c[nH]c2cccc(OC(=O)CCCC(=O)O)c12)C(C)C", "Output unit": "h", "Endpoint value": 1.3}

====

Test: Phase 1 FIH study: plasma pharmacokinetics (LC-MS/MS)
Type: in vivo
Recorded conditions: female, plasma; human, RE104 dose 44 mg SC (n = 3)
Result type: Cmax (ng/mL)

{"Smiles structure": "CC(C)N(CCc1c[nH]c2cccc(O)c12)C(C)C", "Output unit": "ng/mL", "Endpoint value": 275}
{"Smiles structure": "CC(C)N(CCc1c[nH]c2cccc(OC(=O)CCCC(=O)O)c12)C(C)C", "Output unit": "ng/mL", "Endpoint value": 1800}

====

Test: Phase 1 FIH study: plasma pharmacokinetics (LC-MS/MS)
Assay type: in vivo
Recorded conditions: female, plasma; human, RE104 dose 44 mg SC (n = 3); read-out: t1/2, mean (converted)
half-life values for the compounds below.

{"Smiles structure": "CC(C)N(CCc1c[nH]c2cccc(O)c12)C(C)C", "half-life (h)": 3.76}
{"Smiles structure": "CC(C)N(CCc1c[nH]c2cccc(OC(=O)CCCC(=O)O)c12)C(C)C", "half-life (h)": 0.52}

====

Test: in vivo
Recorded conditions: male, beagle, dog, plasma, po, 5 mg/kg
Result type: Cmax (ng/mL)

{"Compound": "CC(C)N(CCc1c[nH]c2cccc(O)c12)C(C)C [4-OH-DiPT]", "Result type": "Cmax", "Output unit": "ng/mL", "Endpoint value": 21.4}
{"Compound": "CC(C)N(CCc1c[nH]c2cccc(OC(=O)CCCC(=O)O)c12)C(C)C [RE104]", "Result type": "Cmax", "Output unit": "ng/mL", "Endpoint value": 12.2}

====

# AUC(0-t) annotations
Test: in vivo
Recorded conditions: male, beagle, dog, plasma, po, 5 mg/kg
Result type: AUC(0-t) (ng·h/mL)

{"Molecule": "CC(C)N(CCc1c[nH]c2cccc(OC(=O)CCCC(=O)O)c12)C(C)C [RE104]", "Endpoint value": 20}
{"Molecule": "CC(C)N(CCc1c[nH]c2cccc(O)c12)C(C)C [4-OH-DiPT]", "Endpoint value": 103}

====

Test: GLP 14-day extended single SC dose toxicity study in rats
Recorded conditions: Sprague Dawley, rat, in vivo, sc

{"Smiles structure": "CC(C)N(CCc1c[nH]c2cccc(OC(=O)CCCC(=O)O)c12)C(C)C", "NOAEL at 14 days (mg/kg)": 10}

====

Entries and their Tmax values follow.
Test: Phase 1 FIH study: plasma pharmacokinetics (LC-MS/MS)
Type: in vivo
Recorded conditions: female, plasma; human, RE104 dose 11 mg SC (n = 6)

{"Smiles structure": "CC(C)N(CCc1c[nH]c2cccc(O)c12)C(C)C", "Tmax / min": 72.6}
{"Smiles structure": "CC(C)N(CCc1c[nH]c2cccc(OC(=O)CCCC(=O)O)c12)C(C)C", "Tmax / min": 19.8}

====

Tgt: human recombinant 5-HT2A receptors (Homo sapiens, UniProt P28223)
Sequence (P28223 whole entry): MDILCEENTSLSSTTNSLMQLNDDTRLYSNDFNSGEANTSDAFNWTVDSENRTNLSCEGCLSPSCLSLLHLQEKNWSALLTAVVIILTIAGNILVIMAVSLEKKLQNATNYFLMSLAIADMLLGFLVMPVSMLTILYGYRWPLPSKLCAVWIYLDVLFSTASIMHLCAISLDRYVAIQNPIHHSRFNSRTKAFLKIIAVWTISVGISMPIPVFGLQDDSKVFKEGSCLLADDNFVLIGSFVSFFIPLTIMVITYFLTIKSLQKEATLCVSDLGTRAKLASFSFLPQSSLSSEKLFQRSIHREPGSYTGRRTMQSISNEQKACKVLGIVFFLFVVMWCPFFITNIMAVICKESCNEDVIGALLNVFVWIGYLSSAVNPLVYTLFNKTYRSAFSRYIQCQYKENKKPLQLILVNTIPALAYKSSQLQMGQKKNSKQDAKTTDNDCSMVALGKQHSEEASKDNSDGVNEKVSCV
Test: 5-HT2A agonist radioligand binding assay ([125I]DOI)
Recorded conditions: read-out: binding Ki at the 5-HT2A receptor; radioligand inhibition binding, HEK-293 cells
pKi: −log10 of the molar value.
Entries and their measured pKi follow.

{"Compound": "CC(C)N(CCc1c[nH]c2cccc(O)c12)C(C)C [4-OH-DiPT]", "Tgt": "human recombinant 5-HT2A receptors (Homo sapiens, UniProt P28223)", "pKi": 6.92}
{"Compound": "CC(C)N(CCc1c[nH]c2cccc(OC(=O)CCCC(=O)O)c12)C(C)C [RE104]", "Tgt": "human recombinant 5-HT2A receptors (Homo sapiens, UniProt P28223)", "pKi": 5.37}

====

Test: GLP 14-day extended single SC dose toxicity study in rats
Recorded conditions: Sprague Dawley, rat, plasma, sc, 10 mg/kg

{"Molecule": "CC(C)N(CCc1c[nH]c2cccc(O)c12)C(C)C [4-OH-DiPT]", "AUC(0-t)": "1230 ng·h/mL"}

====

Test: Rat PK after single IV or SC RE104 HCl 2 mg/kg (Example 1)
Recorded conditions: plasma, sc, 2 mg/kg

{"Molecule": "CC(C)N(CCc1c[nH]c2cccc(OC(=O)CCCC(=O)O)c12)C(C)C [RE104]", "bioavailability": "~100%"}

====

Test: in vivo
Recorded conditions: male, cynomolgus monkey, plasma, sc, 0.5 mg/kg
Result type: half-life (min)

{"Compound": "CC(C)N(CCc1c[nH]c2cccc(O)c12)C(C)C [4-OH-DiPT]", "Result type": "half-life", "Output unit": "min", "Endpoint value": 57}

====

Tgt: human recombinant 5-HT2B receptors (Homo sapiens)
Sequence (P41595 whole entry): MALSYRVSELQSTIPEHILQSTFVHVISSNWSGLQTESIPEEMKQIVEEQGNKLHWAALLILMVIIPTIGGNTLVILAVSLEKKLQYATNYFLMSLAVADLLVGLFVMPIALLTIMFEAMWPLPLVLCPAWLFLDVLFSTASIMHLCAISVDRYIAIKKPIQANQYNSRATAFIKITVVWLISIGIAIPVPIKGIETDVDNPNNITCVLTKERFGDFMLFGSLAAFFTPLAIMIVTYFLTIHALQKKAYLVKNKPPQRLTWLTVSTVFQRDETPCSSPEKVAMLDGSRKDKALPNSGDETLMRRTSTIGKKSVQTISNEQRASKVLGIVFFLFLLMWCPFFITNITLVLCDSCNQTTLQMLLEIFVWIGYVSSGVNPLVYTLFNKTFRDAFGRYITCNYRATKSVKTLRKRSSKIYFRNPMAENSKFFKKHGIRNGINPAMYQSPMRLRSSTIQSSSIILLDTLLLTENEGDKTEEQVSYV
Test: 5-HT2B agonist radioligand binding assay ([125I]DOI)
Recorded conditions: read-out: binding Ki at the 5-HT2B receptor; CHO cells

{"Molecule": "CC(C)N(CCc1c[nH]c2cccc(OC(=O)CCCC(=O)O)c12)C(C)C [RE104]", "Ki": "1800 nM"}
